target: nicotinic binding sites on BV2 membranes; test: [3H]-epibatidine saturation binding on BV2 membranes; settings: read-out: Kd, saturation binding; BV2 microglia membranes
assay.endpoint: Kd

[Q] # get_value(readout='Kd', item= Clc1ccc(C2CC3CCC2N3)cn1 (stereo not shown) [[^3H]-epibatidine] )
[A] 6.5 nM
